Task for the reader: assign each of the following compounds its reported melting point.

Record CCCC(CO)(CCC)N(OC(C)c1ccccc1)C(C)(C)CO (stereo not drawn) , field melting point: 88 to 92 °C

Record Cc1cc(CCC(=O)OC(C)(C)C)nc(-c2nc(=O)c3ccccc3s2)c1 , field melting point: 168 to 169 °C

Record Cc1cc2c(c(C)c1C)C(C)(C)CCC2(C)C , field melting point: 79 to 82 °C

Record CC(c1nc2ccccc2c(=O)n1-c1ccc(F)cc1)N(Cc1cccnc1)C(=O)Cc1ccc(C(F)(F)F)cc1 (stereo not drawn) , field melting point: 167 °C

Record CCOC(=O)c1cc(C(=O)C(C)C)c(=O)[nH]c1C(=O)OCC , field melting point: 116 to 118 °C

Record COC[C@](C#N)(C(=O)NCC(C)(C)C)[C@H](c1ccccc1OC)c1cccc2ccccc12 (relative stereo) , field melting point: 185 to 186 °C

Record COc1cc2c(cc1Nc1ncc(Cl)c(N[C@H]3[C@@H](C(N)=O)[C@@H]4C=C[C@H]3C4)n1)NC(=O)CN(CC1CC1)C2 , field melting point: 152 °C

Record CC(=O)OCC1CCn2c(c(C3=C(c4cccc(C(F)(F)F)c4)C(=O)OC3=O)c3ccccc32)C1 (stereo not drawn) , field melting point: 176 to 177 °C

Record O=c1[nH]c2ccccc2c(=O)n1CCN1CCC(c2noc3cc(F)ccc23)CC1 , field melting point: 253 °C

Record CCC(=O)Nc1nc2ccc(Cl)cc2nc1N , field melting point: 300 to 302 °C

Record O=C(Nc1ccccc1)Nc1[nH]c2ccccc2c1-c1ccccc1 , field melting point: 210 to 212 °C

Record O=C1c2ccccc2S(=O)(=O)N1CCCOc1ccccc1 , field melting point: 83 to 86 °C

Record C(=Cc1ccc(-c2ccc(OCCCN3CCCCC3)cc2)cc1)CN1CCCCC1 , field melting point: 100 to 105 °C

====

Task for the reader: assign each of the following compounds its reported melting point.

Record CS(=O)(=O)CC(O)(Cn1cncn1)C(F)(F)C(F)(F)C(F)(F)C(F)(F)F (stereo not drawn) , field melting point: 106 to 109 °C

Record O=C(O)COc1ccc(OCC(=O)O)c(NC(=O)c2ccc(OCCCCc3ccccc3)cc2)c1 , field melting point: 211 to 214 °C

Record CCC(c1oc2ccccc2c(=O)c1-c1ccccc1)n1cnc2c(N)ncnc21 (stereo not drawn) , field melting point: 223 to 225 °C

Record Cc1c(-c2ccccc2Cl)n(-c2ccccc2Cl)c(-c2ccccc2Cl)cc1=O , field melting point: 205 to 207 °C

Record Cc1cc(O)ccc1N=Cc1ccccc1O , field melting point: 95 to 97 °C

Record c1ccc(C(c2ccccc2)(c2ccns2)n2ccnc2)cc1 , field melting point: 164 to 167 °C

Record Clc1ccc(-c2nc(Cl)cc(Cl)n2)cc1 , field melting point: 120 to 121 °C

Record O=C(O)c1ccc(-c2csc(-c3cccnc3)n2)cc1 , field melting point: > 300 °C

Record CC(C)(OCc1cc2nc(Cl)ccc2n1S(=O)(=O)c1cccc(Cl)c1Cl)C(=O)O , field melting point: 174 °C

Record Cn1cc(-c2cnc3ccc(Br)cc3n2)cn1 , field melting point: 172 °C

Record CCOC(=O)CCc1c(C)c(NC(=O)CC(C)(C)C)c(C)c2c1OCC2c1ccc(C(C)C)cc1 (stereo not drawn) , field melting point: 150 to 151 °C

Record COc1cc2c(O)nc(O)nc2c(OC)c1OC , field melting point: > 255 °C

Record FC(F)(F)c1c[nH]c(-c2ccc(-c3nc(C(F)(F)F)c[nH]3)cc2)n1 , field melting point: 325 °C

====

Task for the reader: assign each of the following compounds its reported melting point.

Record CNC(=O)CC1(C)OCCn2c1c(C)c1ccccc12 (stereo not given) , field melting point: 131 to 133 °C

Record CCCOc1cc(OC)c2c(c1)C(=O)c1cccc(OC(C)C)c1-2 , field melting point: 114 to 116 °C

Record COC(=O)CC1CC(c2ccc(C#N)cc2F)=NO1 (stereo not given) , field melting point: 92 to 94 °C

Record Cc1cnnc2c1C(=O)CC(c1ccccc1Cl)C2 (stereo not given) , field melting point: 108 to 109 °C

Record N#Cc1ccc(-c2cccc(C=O)n2)cc1 , field melting point: 158 to 159 °C

Record CN1CC(O)C(O)C(O)C1CO (stereo not given) , field melting point: 142 to 143 °C

Record CCOC(=O)C(C)=CC=CC(C)=CC=CC=C(C)C=O , field melting point: 120 to 121 °C

Record O=c1ssc(-c2cnccn2)c1CBr , field melting point: 119 °C

Record Cc1cc(C)c(S(=O)(=O)ON)c(C)c1 , field melting point: 90 to 91 °C

Record CC(C)(C)c1cc(C#Cc2ccc(NS(C)(=O)=O)cc2Cl)cc(N2CCC(=O)NC2=O)c1 , field melting point: 278 to 280 °C

Record COc1ccc(CCOCC(=O)O)cc1 , field melting point: 82 to 84 °C

Record Nc1[nH]c(=O)c(C(=O)CCC2CCN(CC3CCCCC3)CC2)cc1Cl , field melting point: 164 °C

Record CC(=O)C1C(=O)CC(CCS(=O)(=O)c2ccc(C(F)(F)F)cc2)CC1=O (stereo not given) , field melting point: 136 °C

Record CCCCCCCCCCCCCCCCCCOc1cccc(N)c1 , field melting point: 77 to 78 °C

Record CC=Cn1c(=S)sc2c(=N)n(NC(=O)c3ccco3)cnc21 , field melting point: 218 °C

====

Task for the reader: assign each of the following compounds its reported melting point.

Record Nc1c2c(nc3ccccc13)CCCC2=O , field melting point: 236 to 238 °C

Record CC(=O)OC(C)c1cccc2cc(C(C)=O)oc12 (stereo not drawn) , field melting point: 82 to 83 °C

Record CCCCCCCCCCCCCCCCCCc1ccc(S(=O)(=O)Nc2nncs2)cc1 , field melting point: 116 to 117 °C

====

Task for the reader: assign each of the following molecules its reported melting point.

Record CC(C)c1c(Br)c(Br)c(-c2ccc(F)cc2)n1CC[C@H]1C[C@H](O)CC(=O)O1 (relative stereo) , field melting point: 143 °C

Record Cc1cccc(-c2c(Cl)ccc3c2C=C(C(=O)O)C(C(F)(F)F)O3)c1 (centres undefined) , field melting point: 222 to 224 °C

Record N#CC(N)=C(C#N)N=C1c2ccccc2-c2ccccc21 , field melting point: 156 to 157 °C

Record O=c1[nH]c2ccncc2c2nc(-c3ccco3)nn12 , field melting point: 312 to 313 °C

====

Task for the reader: assign each of the following compounds its reported melting point.

Record CC(C)(O)CCOc1c(-c2ccc(S(C)(=O)=O)cc2)cnn(-c2ccc(F)cc2)c1=O , field melting point: 133 to 134 °C

Record CC(C)N(C)C(=O)COc1cc(-c2ccccc2)nc2ccccc12 , field melting point: 80 °C

Record Cc1cc(Br)c(C=O)c2ccccc12 , field melting point: 93 °C

Record CSC1(Cl)C(=O)Nc2ccc(C(F)(F)F)cc21 (centres undefined) , field melting point: 191 to 193 °C

Record COCc1ccc(Cl)cc1C(=O)OC , field melting point: 44 to 45 °C

Record CCOc1ccccc1C(=O)CCC(=O)O , field melting point: 125 to 127 °C

Record c1cc(C2=NOCCS2)ccn1 , field melting point: 80 to 82 °C

Record CCS(=O)(=O)c1ccc(SC2SCC(OC(C)=O)C(OC(C)=O)C2OC(C)=O)cc1 (centres undefined) , field melting point: 136 to 137 °C

Record O=C(CCCl)c1cc2[nH]c(=O)[nH]c2cc1Cl , field melting point: 201 to 204 °C

Record COC(=O)CSc1nc(Nc2ccc(N3CCOCC3)cc2)ncc1[N+](=O)[O-] , field melting point: 188 to 190 °C

Record CC(C)c1nn(-c2ccc(C(F)(F)F)cn2)cc1CCCOc1c(C#N)cccc1CC(=O)O , field melting point: 144 to 145 °C

Record COc1ccc(NS(=O)(=O)c2cc3cc(Br)ccc3oc2=O)cc1 , field melting point: 182 to 184 °C

Record CNC(=S)N(C)c1ccc(Cl)nc1 , field melting point: 87.5 to 88 °C

Record CC(=C1SC(=O)NC1=O)c1ccc(OCCOc2c(-c3ccc(F)cc3)n(C)c3ccccc3c2=O)c(F)c1 , field melting point: 220 to 222 °C

Record CC(C)CCCC(C)C1CCC2C3CCC4CC(=O)CC(C)C4(C)C3CCC12C (centres undefined) , field melting point: 132 to 133 °C

Record O=C(C#Cc1ccc(-c2ccc(Cl)cc2)cc1)Nc1ccc(CNCC2CCCCC2)cc1 , field melting point: 205 to 210 °C

Record CCCCCCCCCCCCCCOc1cccc(CC(=O)Nc2cccc(CBr)c2)c1 , field melting point: 104 to 106 °C

Record O=c1n(F)nc(SC(Cl)Cl)n1-c1ccccc1 , field melting point: 128 to 130 °C

Record Clc1ccc(N2CCN(Cc3n[nH]c4c3CCc3ccccc3-4)CC2)nc1 , field melting point: 207 to 208 °C

Record CC(C)CC(NC(=O)Cc1ccc(NC(=O)Nc2ccccn2)cc1)c1ncc(C(C)C(=O)O)s1 (centres undefined) , field melting point: 173 to 175 °C

Record O=C1Cc2ccccc2Oc2ccc(CC(O)(P(=O)(O)O)P(=O)(O)O)cc21 , field melting point: 228 °C

Record CC1CCCC(C)N1S(=O)(=O)N[C@@H](Cc1ccc(NC(=O)c2c(Cl)cccc2Cl)cc1)C(=O)O (some centres undefined) , field melting point: 159 °C

Record CN1CCC(c2c[nH]c3cc(F)c(OS(=O)(=O)c4c(F)cccc4F)cc23)CC1 , field melting point: 202 °C

Record CC(C)C[C@H](N[C@H](CC(C)C)C(=O)OCc1ccccc1)C(=O)N[C@@H](Cc1ccccc1)C(N)=O , field melting point: 145 to 146 °C
